Each recorded value in this set is attributed to the kinase profiling compilation of Christmann-Franck et al. (2016).

Molecular target: TEC (human) (UniProt P42680)
Sequence (P42680 whole entry, looked up): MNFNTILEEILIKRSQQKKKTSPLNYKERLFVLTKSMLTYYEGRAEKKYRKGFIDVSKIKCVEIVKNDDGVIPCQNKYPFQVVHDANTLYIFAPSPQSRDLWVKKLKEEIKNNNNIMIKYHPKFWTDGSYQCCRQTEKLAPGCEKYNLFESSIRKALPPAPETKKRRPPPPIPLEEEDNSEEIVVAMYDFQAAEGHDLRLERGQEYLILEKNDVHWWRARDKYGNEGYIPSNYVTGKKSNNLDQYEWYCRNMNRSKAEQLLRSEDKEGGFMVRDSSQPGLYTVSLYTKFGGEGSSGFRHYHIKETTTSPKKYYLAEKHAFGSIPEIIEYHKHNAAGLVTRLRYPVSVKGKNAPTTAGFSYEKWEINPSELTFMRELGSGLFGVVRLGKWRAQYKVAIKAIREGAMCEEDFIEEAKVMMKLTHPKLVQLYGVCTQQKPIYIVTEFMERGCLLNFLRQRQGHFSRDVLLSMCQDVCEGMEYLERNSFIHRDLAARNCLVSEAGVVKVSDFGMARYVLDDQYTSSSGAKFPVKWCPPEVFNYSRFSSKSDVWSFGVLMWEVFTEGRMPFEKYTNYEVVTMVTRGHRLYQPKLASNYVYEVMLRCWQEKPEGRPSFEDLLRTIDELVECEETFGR
Experiment: KINOMEscan competition binding
Settings: compound 10.0 µM
result-type: kinase still bound, per cent of control (%)
Only the number, expressed in %, is required.

mol=COc1cc(N2CCN(C)CC2)ccc1Nc1ncc2c(n1)Nc1ccccc1NC2=O result_number=87

Please report kinase still bound, per cent of control with TEC (human) (UniProt P42680) for item `CN1CCN(c2ccc(C(=O)Nc3ncc4c(n3)N(C)c3ccccc3C(=O)N4C)cc2)CC1` .
93

Provide kinase still bound, per cent of control, tested on TEC (human) (UniProt P42680), for `COc1cc(N2CCC(O)CC2)ccc1Nc1ncc2c(n1)N1CCc3cccc(c31)C(=O)N2C` .
100

Give kinase still bound, per cent of control only, for `O=C1NC(=O)/C(=C/c2c[nH]c(=O)c(-c3ccc(N4CCNCC4)nc3)c2)S1` , using TEC (human) (UniProt P42680) data.
84

Fill: kinase still bound, per cent of control (TEC (human) (UniProt P42680)) for this molecule `COc1cc(N2CCN(C)CC2)ccc1Nc1ncc2c(n1)N(C)c1sccc1C(=O)N2C`
91

Consider the molecule `COc1cc(N2CCN(C)CC2)ccc1Nc1ncc2c(n1)N(C)c1ccccc1N(C)C2=O` tested on TEC (human) (UniProt P42680); state its kinase still bound, per cent of control.
100

State measured kinase still bound, per cent of control of the molecule `CN1C(=O)c2ccccc2N(C)c2nc(NS(=O)(=O)c3ccc(N)cc3)ncc21` with TEC (human) (UniProt P42680).
100

With TEC (human) (UniProt P42680) as the test system, provide measured kinase still bound, per cent of control for this molecule: `CN1C(=O)c2ccccc2N(C)c2nc(Nc3ccc(N4CCC(O)CC4)cc3)ncc21`
100

----------
Molecular target: TTK (human) (UniProt P33981)
Sequence (P33981 whole entry, looked up): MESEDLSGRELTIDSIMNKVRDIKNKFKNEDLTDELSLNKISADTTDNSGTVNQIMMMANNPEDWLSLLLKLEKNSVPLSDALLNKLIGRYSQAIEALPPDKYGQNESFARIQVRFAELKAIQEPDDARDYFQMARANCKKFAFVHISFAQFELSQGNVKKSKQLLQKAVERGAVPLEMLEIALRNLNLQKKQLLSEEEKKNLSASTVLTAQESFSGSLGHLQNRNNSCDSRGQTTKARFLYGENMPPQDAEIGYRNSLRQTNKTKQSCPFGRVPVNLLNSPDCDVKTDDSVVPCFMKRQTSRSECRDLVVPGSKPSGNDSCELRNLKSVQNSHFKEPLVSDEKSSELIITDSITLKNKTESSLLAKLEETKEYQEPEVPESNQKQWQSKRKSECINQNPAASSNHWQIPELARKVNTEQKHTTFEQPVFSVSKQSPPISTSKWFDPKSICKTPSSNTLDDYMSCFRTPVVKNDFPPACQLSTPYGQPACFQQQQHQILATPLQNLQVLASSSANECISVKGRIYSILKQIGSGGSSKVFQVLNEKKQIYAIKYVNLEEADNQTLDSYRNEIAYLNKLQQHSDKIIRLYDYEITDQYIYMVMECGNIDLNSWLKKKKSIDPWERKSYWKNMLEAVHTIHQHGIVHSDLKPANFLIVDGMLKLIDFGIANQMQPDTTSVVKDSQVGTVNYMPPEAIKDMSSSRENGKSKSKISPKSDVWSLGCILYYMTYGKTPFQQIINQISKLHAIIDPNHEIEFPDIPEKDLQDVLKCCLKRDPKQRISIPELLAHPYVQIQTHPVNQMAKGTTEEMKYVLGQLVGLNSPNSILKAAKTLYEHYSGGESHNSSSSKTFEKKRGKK
Test: KINOMEscan competition binding
Settings: compound 10.0 µM
Measured kinase still bound, per cent of control of individual entries
Express your answer in %, writing the number without its unit.

compound=COc1cc(N2CCC(C)(O)CC2)ccc1Nc1ncc2c(n1)N(C1CCCC1)CCC(=O)N2C study_target="TTK (human) (UniProt P33981)" endpoint_unit=% result_number=3.8
compound=COc1cc(N2CCC(O)CC2)ccc1Nc1ncc2c(n1)N(C1CCCC1)CCC(=O)N2C study_target="TTK (human) (UniProt P33981)" endpoint_unit=% result_number=3.2
compound=COc1cc(C(=O)NC2CCN(C)CC2)ccc1Nc1ncc2c(n1)N(C1CCCC1)[C@@H]1CCC[C@@H]1C(=O)N2C study_target="TTK (human) (UniProt P33981)" endpoint_unit=% result_number=28

Return value of kinase still bound, per cent of control for input `O=C1NC(=O)/C(=C/c2c[nH]c(=O)c(-c3ccc(N4CCNCC4)nc3)c2)S1` , no commentary.
59

Please report the measured kinase still bound, per cent of control for `COc1cc(N(C)CCCO)ccc1Nc1ncc2c(n1)N(C1CCCC1)CCC(=O)N2C`
2.6

Specify measured kinase still bound, per cent of control for `CCOc1cc(N2CCC(O)CC2)ccc1Nc1ncc2c(n1)N(C1CCCC1)CCC(=O)N2C` .
3.2

In one line, give reported kinase still bound, per cent of control of the entry `COc1cc(N(C)CCO)ccc1Nc1ncc2c(n1)N(C1CCCC1)CCC(=O)N2C` .
2.2

Return kinase still bound, per cent of control (reported value) for this compound: `CN1C(=O)c2ccccc2N(C)c2nc(NS(=O)(=O)c3ccc(N)cc3)ncc21`
100

Please indicate kinase still bound, per cent of control recorded for `COc1cc(C(=O)NC2CCN(C)CC2)ccc1Nc1ncc2c(n1)N(C1CCCC1)CCC(=O)N2C`
5.2

Identify the reported kinase still bound, per cent of control for the following entry. COc1cc(N2CCC(N3CCN(C)CC3)CC2)ccc1Nc1ncc2c(n1)N1CCCC1CC(=O)N2C (configuration not stated)
2.4

----------
Molecular target: PLK1 (human)
Experiment: KINOMEscan competition binding
Conditions: compound 10.0 µM
Recorded kinase still bound, per cent of control for the following compounds
The response must be a number in % with no trailing unit.

These recorded examples may help you get a feel for the data.
compound=CN1C(=O)c2ccccc2N(C)c2nc(NS(=O)(=O)c3ccc(N)cc3)ncc21 endpoint_unit=% result_number=100
compound="COc1cc(C(=O)NC2CCN(C)CC2)ccc1Nc1ncc2c(n1)N(C1CCCC1)C(C)CC(=O)N2C (stereo not given)" endpoint_unit=% result_number=19
compound=COc1cc(N2CCC(O)CC2)ccc1Nc1ncc2c(n1)N1CCc3cccc(c31)C(=O)N2C endpoint_unit=% result_number=0.2

Using known records, supply kinase still bound, per cent of control for `COc1cc(N(C)CCO)ccc1Nc1ncc2c(n1)N(C1CCCC1)CCC(=O)N2C`
7.4

For `COc1cc(N2CCN(C)CC2)ccc1Nc1ncc2c(n1)N1CCC[C@H]1CC(=O)N2C` , write its kinase still bound, per cent of control.
2.4

----------
Target: EPHA8 (human)
Assay: KINOMEscan competition binding
Details: compound 10.0 µM
result-type: kinase still bound, per cent of control (%)
Your answer is read as %, so omit the unit and give the number.

mol=CN1CCN(c2ccc(C(=O)Nc3ncc4c(n3)N(C)c3ccccc3C(=O)N4C)cc2)CC1 result_number=92
mol=CN1C(=O)c2ccccc2N(C)c2nc(Nc3ccc(N4CCC(O)CC4)cc3)ncc21 result_number=100
mol=COc1cc(N2CCN(C)CC2)ccc1Nc1ncc2c(n1)N(C)c1sccc1C(=O)N2C result_number=89
mol=CC(C)Oc1cc(N2CCC(O)CC2)ccc1Nc1ncc2c(n1)N(C1CCCC1)CCC(=O)N2C result_number=0
mol=O=C1NC(=O)/C(=C/c2c[nH]c(=O)c(-c3ccc(N4CCNCC4)nc3)c2)S1 result_number=76
mol=COc1cc(N2CCN(C)CC2)ccc1Nc1ncc2c(n1)Nc1ccccc1NC2=O result_number=80

Input `COc1cc(N2CCC(O)CC2)ccc1Nc1ncc2c(n1)N1CCc3cccc(c31)C(=O)N2C` , output reported kinase still bound, per cent of control.
92

Indicate its recorded kinase still bound, per cent of control; the compound in question is `COc1cc(N2CCN(C)CC2)ccc1Nc1ncc2c(n1)N(C)c1ccccc1N(C)C2=O`
100

Kindly indicate its recorded kinase still bound, per cent of control. Item: `CN1C(=O)c2ccccc2N(C)c2nc(NS(=O)(=O)c3ccc(N)cc3)ncc21`
100

----------
Biological target: PIM3 (human)
Test: KINOMEscan competition binding
Details: compound 10.0 µM
result-type: kinase still bound, per cent of control (%)
Note: unit % is implicit; provide only the numeric part.

compound=N=C1NC(=O)/C(=C/c2ccc(-c3cncc4ccccc34)o2)S1 result_type="kinase still bound, per cent of control" endpoint_unit=% result_number=1.6

Fetch value of kinase still bound, per cent of control on PIM3 (human) for `CSC1=NC(=O)/C(=C/c2ccc(-c3ccc(S(N)(=O)=O)cc3)o2)S1` .
1.8

Write kinase still bound, per cent of control of `O=C1NC(=O)/C(=C/c2c[nH]c(=O)c(-c3ccc(C(=O)Nc4ccc(N5CCNCC5)cc4)cc3)c2)S1` ; system used: PIM3 (human)
10

Supply kinase still bound, per cent of control measured with PIM3 (human) for `CSC1=NC(=O)/C(=C/c2c[nH]c(=O)c(-c3ccc(NS(C)(=O)=O)cc3)c2)S1` .
16

# return kinase still bound, per cent of control of `NS(=O)(=O)c1ccc(-c2ccc(/C=C3\SC(=S)NC3=O)o2)cc1` (system: PIM3 (human))
2.2

Supply kinase still bound, per cent of control measured with PIM3 (human) for `CS(=O)(=O)Nc1ccc(-c2cccc(/C=C3\SC(=N)NC3=O)n2)cc1` .
13

Specify the recorded kinase still bound, per cent of control for `N=C1NC(=O)/C(=C/c2ccc(-c3ccc(F)cc3)o2)S1` , system: PIM3 (human).
3.7

Retrieve kinase still bound, per cent of control on PIM3 (human); query `COc1cc(N2CCN(C)CC2)ccc1Nc1ncc2c(n1)N(C)c1ccccc1N(C)C2=O`
84

Look up and report measured kinase still bound, per cent of control (PIM3 (human)) for the following compound: `CN1C(=O)c2ccccc2N(C)c2nc(Nc3ccc(N4CCC(O)CC4)cc3)ncc21`
100

With PIM3 (human) as the test system, provide measured kinase still bound, per cent of control for this compound: `N=C1NC(=O)/C(=C/c2c[nH]c(=O)c(-c3ccc(S(N)(=O)=O)cc3)c2)S1`
12

Give kinase still bound, per cent of control for `O=C1NC(=S)S/C1=C\c1ccc(-c2cncc3ccccc23)o1` tested on PIM3 (human).
2.7

Lab note: PIM3 (human) assay, enter kinase still bound, per cent of control for `N=C1NC(=O)/C(=C/c2ccc(-c3ccc(C(N)=O)cc3O)o2)S1` here
5.4

----------
Biological target: MYLK3 (human)
Assay: KINOMEscan competition binding
Details: compound 10.0 µM
kinase still bound, per cent of control strictly less than 30% = condition met. Otherwise condition not met.

Worked cases, answers included:
mol=CN1C(=O)[C@H]2CCC[C@H]2N(C2CCCC2)c2nc(Nc3ccc(C(N)=O)cc3)ncc21 discrete_label="condition met"
mol=COc1cc(N2CCC(O)CC2)ccc1Nc1ncc2c(n1)N1CCc3cccc(c31)C(=O)N2C discrete_label="condition not met"
mol=Nc1cccc(-c2cc(/C=C3\SC(=O)NC3=O)c[nH]c2=O)c1 discrete_label="condition met"
mol=CN1C(=O)c2ccccc2N(C)c2nc(Nc3ccc(N4CCC(O)CC4)cc3)ncc21 discrete_label="condition not met"
mol=CS(=O)(=O)Nc1ccc(-c2ncc(/C=C3\SC(=N)NC3=O)s2)cc1 discrete_label="condition met"
mol=CS(=O)(=O)Nc1ccc(-c2cncc(/C=C3\SC(=N)NC3=O)c2)cc1 discrete_label="condition met"
mol=N=C1NC(=O)/C(=C/c2ccc(-c3ccccc3O)o2)S1 discrete_label="condition met"
mol=O=C1NC(=O)/C(=C/c2c[nH]c(=O)c(-c3ccc(N4CCNCC4)nc3)c2)S1 discrete_label="condition met"
mol=CN1C(=O)[C@H]2CCC[C@H]2N(C2CCCC2)c2nc(Nc3ccc4ncccc4c3)ncc21 discrete_label="condition met"
mol=COc1cc(N2CCN(C)CC2)ccc1Nc1ncc2c(n1)N(C)c1ccccc1N(C)C2=O discrete_label="condition not met"

Please state whether kinase still bound, per cent of control is below 30% for `O=C1NC(=S)S/C1=C\c1ccc(-c2cncc3ccccc23)o1`
condition met

Please check: kinase still bound, per cent of control for `N=C1NC(=O)/C(=C/c2ccc(-c3ccc(C(=O)Nc4ccc(N5CCNCC5)cc4)cc3O)o2)S1` , strictly under 30% or not?
condition met

Please state whether kinase still bound, per cent of control is below 30% for `COc1cc(N2CCN(C)CC2)ccc1Nc1ncc2c(n1)N(C)c1sccc1C(=O)N2C`
condition not met

Dear colleague, could you confirm whether kinase still bound, per cent of control of `N=C1NC(=O)/C(=C/c2ccc(-c3cncc4ccccc34)o2)S1` falls below 30%? Thanks.
condition met

Determine whether this molecule shows kinase still bound, per cent of control lower than 30% (ties excluded): `CN1CCN(c2ccc(C(=O)Nc3ncc4c(n3)N(C)c3ccccc3C(=O)N4C)cc2)CC1`
condition not met

hey, is kinase still bound, per cent of control for `N=C1NC(=O)/C(=C/c2ccc(-c3csc4ccccc34)o2)S1` lower than 30% or not?
condition met
